Assay: Mouse Pharmacokinetic Studies
Assay type: in vivo
Details: male BALB/c mice, 3 mg/kg IV tail bolus, plasma
Procedure: Samples were obtained from 3 male BALB/c mice at staggered time points. Each mouse was given a tail bolus injection of 3 mg/kg injection of Compound 70 formulated as an IV solution with DMSO: PEG400: Aqueous solution with 20% HP-β-CD (5:30:65, v:v:v) (adjusted by 1N HCl). Blood samples (collected into lithium heparin tubes) were obtained at predose, and at 5, 15, 30 min and at 1, 2-, 4-, 8- and 24-hour, post injection. Plasma was separated from blood and stored at −20° C. prior to analysis. […]
measured.property: clearance (mL/min/kg)
Write the value in mL/min/kg as a bare number.

Please report the measured clearance for CC(C)Cn1c(=O)n(C[C@H](O)CN2CCc3ccccc3C2)c(=O)c2ccc(Br)cc21 [Compound 70] 66.9
